Molecular target: Epidermal growth factor receptor (Homo sapiens)
Test: Inhibition of Epidermal growth factor receptor-dependent phosphorylation
READOUT LABEL: pIC50
Please express pIC50 as -log10 of the molar concentration.

Field: example entries. Status: answers known.
- STRUCTURE NOTATION: "COc1cc(O)c2c(=O)c(-c3cccc(Cl)c3)cn(CCc3ccccc3)c2c1"
  READOUT LABEL: "pIC50"
  OBSERVED VALUE: 5.82
- STRUCTURE NOTATION: "O=c1c(-c2cccc(Cl)c2)coc2cc(O)cc(O)c12"
  READOUT LABEL: "pIC50"
  OBSERVED VALUE: 4.92
- STRUCTURE NOTATION: "Oc1cc(O)c2c(O)c(-c3cccc(Cl)c3)cnc2c1"
  READOUT LABEL: "pIC50"
  OBSERVED VALUE: 5.70

State pIC50 (Epidermal growth factor receptor (Homo sapiens)) of `COc1cc(O)c2c(=O)c(-c3cccc(Cl)c3)cn(C)c2c1` . 5.52

State pIC50 (Epidermal growth factor receptor (Homo sapiens)) of `COc1cc(O)c2c(O)c(-c3cccc(Cl)c3)cnc2c1` . 5.22

====

Target: Proto-oncogene tyrosine-protein kinase Src (Homo sapiens)
Sequence (P12931 2-536 limits assumed): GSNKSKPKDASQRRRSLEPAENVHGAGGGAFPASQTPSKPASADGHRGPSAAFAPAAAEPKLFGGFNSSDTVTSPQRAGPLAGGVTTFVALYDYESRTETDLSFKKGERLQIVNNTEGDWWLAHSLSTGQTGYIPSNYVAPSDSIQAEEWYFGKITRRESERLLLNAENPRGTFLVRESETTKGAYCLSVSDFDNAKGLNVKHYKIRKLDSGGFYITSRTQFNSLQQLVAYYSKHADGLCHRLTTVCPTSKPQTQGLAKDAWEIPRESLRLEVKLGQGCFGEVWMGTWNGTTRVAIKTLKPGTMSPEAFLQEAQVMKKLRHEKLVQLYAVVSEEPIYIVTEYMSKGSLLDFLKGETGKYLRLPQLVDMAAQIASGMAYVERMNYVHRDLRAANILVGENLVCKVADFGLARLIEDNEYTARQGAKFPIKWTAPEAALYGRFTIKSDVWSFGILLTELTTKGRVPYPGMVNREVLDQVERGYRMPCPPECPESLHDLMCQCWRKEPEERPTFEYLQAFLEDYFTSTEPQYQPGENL
The compounds listed here are annotated with their IC50.
Express it in µM; write the number only.

- STRUCTURE NOTATION: "Oc1cc(O)c2c(O)c(-c3cccc(Cl)c3)cnc2c1"
  IC50 [µM]: 8

// next item, IC50 requested
Find the measured IC50 of `COc1cc2ncnc(Nc3cccc(Cl)c3)c2cc1OC` and report it. 2.7

====

Molecular target: Epidermal growth factor receptor (Homo sapiens)
Test: Inhibition of Epidermal growth factor receptor
READOUT LABEL: IC50 (µM)
Express it in µM; write the number only.

Field: example entries. Status: answers known.
- STRUCTURE NOTATION: "COc1cc(O)c2c(=O)c(-c3cccc(Cl)c3)cn(CCc3ccccc3)c2c1"
  IC50 [µM]: 4
- STRUCTURE NOTATION: "COc1cc(O)c2c(O)c(-c3cccc(Cl)c3)cnc2c1"
  IC50 [µM]: 0.038
- STRUCTURE NOTATION: "O=c1c(-c2cccc(Cl)c2)coc2cc(O)cc(O)c12"
  IC50 [µM]: 0.095
- STRUCTURE NOTATION: "COc1cc(O)c2c(=O)c(-c3cccc(Cl)c3)coc2c1"
  IC50 [µM]: 1.27
- STRUCTURE NOTATION: "COc1cc(O)c2c(=O)c(-c3cccc(Cl)c3)cn(C)c2c1"
  IC50 [µM]: 0.17

State IC50 (Epidermal growth factor receptor (Homo sapiens)) of `COc1cc(OC)c2c(=O)c(-c3cccc(Cl)c3)coc2c1` . 500

====

The compounds listed here are annotated with their IC50.
Molecular target: Tyrosine-protein kinase ABL (Homo sapiens, UniProt P00519+P42684)
Test: Inhibition of v-Abl tyrosine kinase
Assay type: protein assay

Field: example entries. Status: answers known.
- COMPOUND: "COc1cc(O)c2c(=O)c(-c3cccc(Cl)c3)coc2c1"
  OBSERVED VALUE: "> 100 µM"
- COMPOUND: "O=c1c(-c2ccc(O)cc2)coc2cc(O)cc(O)c12 [GENISTEIN]"
  OBSERVED VALUE: "> 10 µM"
- COMPOUND: "Oc1cc(O)c2c(O)c(-c3cccc(Cl)c3)cnc2c1"
  OBSERVED VALUE: "> 10 µM"
- COMPOUND: "COc1cc(O)c2c(=O)c(-c3cccc(Cl)c3)cn(C)c2c1"
  OBSERVED VALUE: "> 10 µM"
- COMPOUND: "COC(=O)Cn1cc(-c2cccc(Cl)c2)c(=O)c2c(O)cc(OC)cc21"
  OBSERVED VALUE: "> 10 µM"

State IC50 (Tyrosine-protein kinase ABL (Homo sapiens, UniProt P00519+P42684)) of `COc1cc(O)c2c(O)c(-c3cccc(Cl)c3)cnc2c1` . > 100 µM

State IC50 (Tyrosine-protein kinase ABL (Homo sapiens, UniProt P00519+P42684)) of `O=c1c(-c2cccc(Cl)c2)coc2cc(O)cc(O)c12` . 20 µM

====

Biological target: Epidermal growth factor receptor (Homo sapiens, UniProt P00533)
Sequence (P00533 whole entry): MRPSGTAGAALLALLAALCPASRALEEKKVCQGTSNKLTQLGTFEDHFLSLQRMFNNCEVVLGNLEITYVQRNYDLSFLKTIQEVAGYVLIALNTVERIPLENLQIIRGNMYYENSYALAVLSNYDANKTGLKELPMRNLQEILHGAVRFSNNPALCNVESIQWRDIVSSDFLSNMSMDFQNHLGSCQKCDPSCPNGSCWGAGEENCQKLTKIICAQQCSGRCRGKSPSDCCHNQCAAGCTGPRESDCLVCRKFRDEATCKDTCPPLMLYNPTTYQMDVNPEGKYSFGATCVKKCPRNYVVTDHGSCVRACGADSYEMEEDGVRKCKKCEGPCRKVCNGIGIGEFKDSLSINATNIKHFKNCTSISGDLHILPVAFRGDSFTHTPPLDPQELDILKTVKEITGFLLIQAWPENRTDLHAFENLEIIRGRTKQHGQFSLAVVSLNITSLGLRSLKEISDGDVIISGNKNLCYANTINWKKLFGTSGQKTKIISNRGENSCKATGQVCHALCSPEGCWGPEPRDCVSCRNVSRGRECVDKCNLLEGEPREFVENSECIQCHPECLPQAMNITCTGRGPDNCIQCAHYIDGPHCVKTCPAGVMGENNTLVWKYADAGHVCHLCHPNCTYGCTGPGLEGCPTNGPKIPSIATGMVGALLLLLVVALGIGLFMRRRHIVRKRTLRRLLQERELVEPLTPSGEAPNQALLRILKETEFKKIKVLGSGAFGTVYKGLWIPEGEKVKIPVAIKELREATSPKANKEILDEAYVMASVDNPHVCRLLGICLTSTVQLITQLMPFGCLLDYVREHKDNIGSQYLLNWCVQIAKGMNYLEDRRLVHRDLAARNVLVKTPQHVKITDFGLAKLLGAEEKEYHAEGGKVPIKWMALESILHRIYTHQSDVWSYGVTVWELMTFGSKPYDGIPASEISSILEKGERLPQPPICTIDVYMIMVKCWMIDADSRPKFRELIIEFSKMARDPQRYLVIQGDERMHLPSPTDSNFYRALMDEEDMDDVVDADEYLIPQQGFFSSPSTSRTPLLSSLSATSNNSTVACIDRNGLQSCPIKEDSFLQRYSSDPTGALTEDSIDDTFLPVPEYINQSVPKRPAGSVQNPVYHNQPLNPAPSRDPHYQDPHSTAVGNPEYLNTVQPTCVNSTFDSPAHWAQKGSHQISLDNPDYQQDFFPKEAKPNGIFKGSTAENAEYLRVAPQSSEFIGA
Assay: Inhibition of Epidermal growth factor receptor
READOUT LABEL: IC50

- STRUCTURE NOTATION: "Oc1c(-c2cccc(Cl)c2)cnc2ccccc12"
  IC50: "> 100 µM"

Find the measured IC50 of `Oc1cc(O)c2c(O)c(-c3cccc(Cl)c3)cnc2c1` and report it. 0.008 µM

Find the measured IC50 of `O=c1c(-c2cccc(Cl)c2)coc2cc(O)ccc12` and report it. 58.8 µM

Measured values drawn from ChEMBL document CHEMBL1132606 for this set.
